We begin with IC50 values for Amine oxidase [flavin-containing] A (Homo sapiens), as collected from the published literature.

Request: Look at this compound and give its reported IC50. N[C@H]1CC[C@@H](N[C@H]2[C@H]3Cc4ccccc4[C@H]32)CC1 (racemic)
Response: > 100 µM

Request: Fill in: IC50 of `COc1ccc(/C=C/c2cc3c(c(=O)n(C)c(=O)n3C)n2C)cc1` is ___
Response: > 1 µM

Request: Suppose we examine the compound `Cn1c(=O)c2c(nc3n2CCCN3c2cccc(Cl)c2)n(C)c1=O` ; what IC50 value has been reported?
Response: > 10 µM

###

Several reports have described pIC50 for UniProt:P21397; a selection of those results is presented here.
pIC50: −log10 of the molar value.

Request: Which pIC50 is listed for `Cc1cc(F)ncc1C(=O)Nc1ccc([C@@H]2C[C@H]2NCC2CC2)cc1` ?
Response: < 4.00

Request: Which pIC50 reading was recorded for the compound `Cn1c(=O)c2c(nc3n2CCCN3CC(=O)N2CCN(c3ccccc3)CC2)n(C)c1=O` ?
Response: < 5.00

Request: # get_value(readout='pIC50', item= `Cn1c(C(=O)Nc2cccc(COc3ccc(OC4CCNCC4)cc3)c2)cc2sccc21` )
Response: < 4.00

Request: Item `Nc1nnc(NCc2c(Cl)cccc2Oc2ccccc2)[nH]1` has what recorded pIC50?
Response: < 4.00

Request: Requested field: pIC50. Item: `COc1ccc(/C=C/C(=O)c2ccc(OC)cc2)cc1`
Response: < 4.00

Request: Which pIC50 value is on record for `CCn1c(=O)c2c(nc3n2CCCN3C2CCCCC2)n(CC)c1=O` ?
Response: < 5.00

Request: # get_value(readout='pIC50', item= `CCCCCC/C(C)=N/Nc1nc(-c2cccc(OC)c2)cs1` )
Response: 5.86

Request: Would you mind telling me what pIC50 value was observed for `Cn1c(=O)c2c(cc(/C=C/c3ccc(C#N)cc3)n2C)n(C)c1=O` ?
Response: < 5.00

Request: GET /values?readout=pIC50&item= `Cc1ccc(NC(=S)N/N=C/c2ccc(-n3nc4c(c3C)N(C)S(=O)(=O)c3ccccc3-4)cc2)c(C)c1`
Response: 5.95

Request: Which pIC50 is listed for `Cc1ccccc1NC(=S)N/N=C/c1ccc(-n2nc3c(c2C)N(C)S(=O)(=O)c2ccccc2-3)cc1` ?
Response: 8.00

Request: # pIC50 lookup, item `COc1cccc(-c2csc(NN=C3CCCC3)n2)c1`
Response: 6.23

Request: What pIC50 value was documented for this compound, `CCn1c(=O)c2c(nc3n2CCCN3c2ccc(O)cc2)n(CC)c1=O` ?
Response: < 5.00

Request: Form field: reported pIC50 of `Cn1c(=O)c2c(cc(-n3cc(-c4ccc(Cl)cc4)nn3)n2C)n(C)c1=O`
Response: 6.14

###

Assayed target: Amine oxidase [flavin-containing] A (Homo sapiens, UniProt P21397)
Sequence (P21397 whole entry): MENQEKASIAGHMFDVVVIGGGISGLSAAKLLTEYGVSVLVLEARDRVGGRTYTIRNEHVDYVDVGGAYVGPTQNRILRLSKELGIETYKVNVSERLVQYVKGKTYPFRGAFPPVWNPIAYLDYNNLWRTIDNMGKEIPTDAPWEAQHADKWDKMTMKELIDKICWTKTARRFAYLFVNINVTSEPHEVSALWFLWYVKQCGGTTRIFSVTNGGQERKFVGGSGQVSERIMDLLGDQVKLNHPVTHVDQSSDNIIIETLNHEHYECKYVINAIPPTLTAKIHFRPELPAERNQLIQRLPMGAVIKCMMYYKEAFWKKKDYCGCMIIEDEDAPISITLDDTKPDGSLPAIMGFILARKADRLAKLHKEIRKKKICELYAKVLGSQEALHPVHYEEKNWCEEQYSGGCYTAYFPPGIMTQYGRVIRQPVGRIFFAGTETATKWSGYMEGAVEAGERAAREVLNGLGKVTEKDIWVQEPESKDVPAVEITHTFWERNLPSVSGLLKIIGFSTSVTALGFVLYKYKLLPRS
Literature survey of IC50 (system: Amine oxidase [flavin-containing] A (Homo sapiens, UniProt P21397)).

Request: Param item = `COc1ccccc1C(=O)/C=C/c1ccccc1` ; retrieve measured IC50.
Response: > 100 µM

Request: Fill blank: measured IC50 of the molecule `O=C(/C=C/c1ccccc1C(F)(F)F)Nc1cccc(O)c1` is ____.
Response: > 100 µM

Request: Look up IC50 for this molecule: O=C1C(CCCCN[C@@H]2C[C@H]2c2ccccc2)C(=O)N(c2ccc(-c3ccccc3)cc2)CCN1Cc1cccc(Cl)c1 (relative stereo)
Response: > 100 µM

Request: What does the data say about its IC50? Entry: `COc1ccccc1C(=O)/C=C/c1ccccc1C(F)(F)F`
Response: > 100 µM

Request: Which IC50 is reported for this molecule? `C#CCn1c(=O)c2c(nc3n2CCCN3Cc2ccccc2OC)n(C)c1=O`
Response: > 10 µM

Request: Tell me the measured IC50 of `Nc1n[nH]c(NCc2c(Cl)cccc2Oc2cccc3ccccc23)n1` , please.
Response: > 200 µM
